test: Phase 1 trial: plasma pharmacokinetics
Format: in vivo
reported_conditions: human, oral, 40 mg, Cycle 1 Day 28, 40 mg BID (n = 3), read-out: Cmax mean

{"columns": ["input_smiles", "Cmax [ng/mL]"],
 "data": [
  ["COc1ccc(CN2C3CC2CN(c2ccc(-c4cc(N5CC(C)(O)C5)cn5ncc(C#N)c45)cn2)C3)cn1", 1280]
]}

###

test: Phase 1 trial: plasma pharmacokinetics
Assay type: in vivo
reported_conditions: human, 20 mg, Cycle 1 Day 1, 20 mg BID (n = 1), read-out: MRTINF_obs mean
measured_quantity: MRT inf (h)

{"columns": ["input_smiles", "unit_descriptor", "result"],
 "data": [
  ["COc1ccc(CN2C3CC2CN(c2ccc(-c4cc(N5CC(C)(O)C5)cn5ncc(C#N)c45)cn2)C3)cn1", "h", 16.7]
]}
